molecular target: human apelin receptor (Homo sapiens, UniProt P35414); construct: expressed in transfected cells; assay: Determination of agonism on the human apelin receptor by a calcium fluorescence assay (FLIPR); assay type: cell-based; conditions: HEK293 cells stably transfected with human apelin receptor and Giaq protein, Fluo-4 calcium fluorescence, read-out: EC50 (APJ agonism)
Sequence (P35414 whole entry): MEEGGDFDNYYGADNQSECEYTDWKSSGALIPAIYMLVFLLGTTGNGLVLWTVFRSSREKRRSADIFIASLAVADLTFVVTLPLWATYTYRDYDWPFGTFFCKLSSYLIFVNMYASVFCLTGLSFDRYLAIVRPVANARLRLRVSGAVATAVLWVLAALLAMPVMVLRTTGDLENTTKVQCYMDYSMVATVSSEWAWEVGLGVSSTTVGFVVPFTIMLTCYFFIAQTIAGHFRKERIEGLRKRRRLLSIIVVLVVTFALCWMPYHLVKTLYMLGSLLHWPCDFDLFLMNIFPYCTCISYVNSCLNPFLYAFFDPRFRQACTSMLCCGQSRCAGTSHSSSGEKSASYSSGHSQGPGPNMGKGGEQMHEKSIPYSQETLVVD
VALUE_KIND: EC50 (nM)

Illustrative cases are given below, each with its answer.
* CCC(CC)n1c(Cc2cccs2)nc2cc(C(=O)N[C@@H](CC(C)C)C(=O)NC3CCN(Cc4c(OC)cccc4OC)CC3)ccc21 [Example 288] | 512
* CC(C)C[C@@H](CC(=O)O)NC(=O)c1ccc2c(c1)nc(Cc1cccs1)n2C1CCCCC1C(F)(F)F (stereo partly shown) [Example 102] | 247
* CCC(CC)n1c(Cc2cccs2)nc2cc(C(=O)N[C@@H](CC(C)C)C(=O)NCC#N)ccc21 [Example 403] | 1610
* CCC(CC)n1c(Cc2cccs2)nc2cc(C(=O)N[C@@H](CC(C)C)C(=O)NCC3CCCN(CCc4ccccc4)C3)ccc21 (stereo partly shown) [Example 302] | 386

[A] C[C@@H]1CCCC[C@H]1n1c(Cc2cccs2)nc2cc(C(=O)NC(CC3CCCCCC3)C(=O)O)ccc21 (single isomer, unassigned) [Example 450]
[B] CCC(CC)n1c(Cc2cccs2)nc2cc(C(=O)N[C@@H](CC(C)C)C(=O)NC(C)c3ccc(F)cc3)ccc21 (stereo partly shown) [Example 246]
[C] CC(C)C[C@H](NC(=O)c1ccc2c(c1)nc(Cc1cccs1)n2C1CCCC1C)C(=O)O (stereo partly shown) [Example 90]
Put the items in sequence by EC50, from largest down. Quick reminder: the answer is the labels in the order asked.
B, A, C
